The origin of these recorded values is patent US11098333B2.

test system: ATP phosphoribosyltransferase (HisG); assay: Degree of inhibition by L-histidine on activities of ATP phosphoribosyltransferase variants; assay type: biochemical, Corynebacterium glutamicum; conditions: L-histidine 50 mM
Observation type: Activity of Enzyme, 50 mM L-histidine (U/mg)
Give your result in U/mg as a bare value.

Item under review: HisG (N215R/L231F/T235A): ATP phosphoribosyltransferase variant N215R/L231F/T235A (protein) MLKIAVPNKGSLSERAMEILAEAGYAGRGDSKSLNVFDEANNVEFFFLRPKDIAIYVAGGQLDLGITGRDLARDSQADVHEVLSLGFGSSTFRYAAPADEEWSIEKLDGKRIATSYPNLVRDDLAARGLSAEVLRLDGAVEVSIKLGVADAIADVVSTGRTLRQQGLAPFGEVLCTSEAVIVGRKDEKVTPEQQILLRRIQGILHAQNFLMLDYRVDRDNLDAATAVTPGFSGPAVSPLARDNWVAVRAMVPRRSANAIMDKLAGLGAEAILASEIRIARI . Reported Activity of Enzyme, 50 mM L-histidine?
0.157
